Assay: Hue of dye / writing
Format: physicochemical
RECORDED_ENDPOINT: Hue

Nc1ccc(N=Nc2ccc(Nc3ccc(N=Nc4c(S(=O)(=O)O)cc5cc(S(=O)(=O)O)c(N=Nc6ccccc6)c(O)c5c4N)cc3S(=O)(=O)O)cc2)c(O)c1 [compound 1, C.I. Direct Black 168, reference compound] | Reddish
Nc1ccc(N=Nc2ccc(N(c3ccccc3)c3ccc(N=Nc4c(S(=O)(=O)O)cc5cc(S(=O)(=O)O)c(N=Nc6ccccc6)c(O)c5c4N)cc3)cc2)c(O)c1 | Reddish

###

Test system: strains TA98
Assay type: cell-based
Conditions: TA98, S-9 (+), 78 μg/plate
RECORDED_ENDPOINT: Ames test: ratio of the number of colonies to control
Please give the numeric answer without any surrounding text.

Example entries begin here.
CN(c1ccc(N=Nc2ccc(N)cc2O)cc1)c1ccc(N=Nc2c(S(=O)(=O)O)cc3cc(S(=O)(=O)O)c(N=Nc4ccccc4)c(O)c3c2N)cc1 [Ex. 5] | 1.56
Nc1ccc(N=Nc2ccc(N(c3ccccc3)c3ccc(N=Nc4c(S(=O)(=O)O)cc5cc(S(=O)(=O)O)c(N=Nc6ccc(S(=O)(=O)O)cc6)c(O)c5c4N)cc3)cc2)c(O)c1 [Ex. 4] | 1.22
CCCCCCN(c1ccc(N=Nc2ccc(N)cc2O)cc1)c1ccc(N=Nc2c(S(=O)(=O)O)cc3cc(S(=O)(=O)O)c(N=Nc4ccccc4C)c(O)c3c2N)cc1 [Ex. 7] | 1.15
Nc1ccc(N=Nc2ccc(N=Nc3c(S(=O)(=O)[O-])cc4cc(S(=O)(=O)[O-])c(N=Nc5ccc(N=Nc6ccc(N)cc6N)cc5)c(O)c4c3N)cc2)c(N)c1.[Na+].[Na+] [compound 2, C.I. Direct Black 19, reference compound] | 24.2
CCCCCCCCN(c1ccc(N=Nc2ccc(N)cc2O)cc1)c1ccc(N=Nc2c(S(=O)(=O)O)cc3cc(S(=O)(=O)O)c(N=Nc4ccc(S(=O)(=O)O)cc4)c(O)c3c2N)cc1 [Ex. 8] | 1.22

Q: Any idea what Ames test: ratio of the number of colonies to control came out for Cc1ccc(N(c2ccc(N=Nc3ccc(O)cc3O)cc2)c2ccc(N=Nc3c(S(=O)(=O)O)cc4cc(S(=O)(=O)O)c(N=Nc5ccccc5)c(O)c4c3N)cc2)cc1 [Ex. 2] on strains TA98?
Ans: 1.09

Q: Subsequent entry: Cc1cc(-c2ccc(N=Nc3c(S(=O)(=O)[O-])cc4cc(S(=O)(=O)[O-])c(N=Nc5ccccc5)c(O)c4c3N)c(C)c2)ccc1N=Nc1ccc(N)cc1N.[Na+].[Na+] [compound 3, C.I. Direct Black 154, reference compound]
Ans: 2.35

Q: For Nc1ccc(N=Nc2ccc(N(c3ccccc3)c3ccc(N=Nc4c(S(=O)(=O)O)cc5cc(S(=O)(=O)O)c(N=Nc6ccccc6)c(O)c5c4N)cc3)cc2)c(O)c1 [Ex. 1] then?
Ans: 1.17

Q: Query CCC(C)c1ccc(N=Nc2c(S(=O)(=O)O)cc3cc(S(=O)(=O)O)c(N=Nc4ccc(N(c5ccccc5)c5ccc(N=Nc6ccc(O)cc6O)cc5)cc4)c(N)c3c2O)cc1 (centres unmarked) [Ex. 3] next
Ans: 1.07

Q: Repeat with CCCCN(c1ccc(N=Nc2ccc(N)cc2O)cc1)c1ccc(N=Nc2c(S(=O)(=O)O)cc3cc(S(=O)(=O)O)c(N=Nc4ccc(C(C)CC)cc4)c(O)c3c2N)cc1 (centres unmarked) [Ex. 6]
Ans: 1.04

Q: Entry to check: Nc1ccc(N=Nc2ccc(Nc3ccc(N=Nc4c(S(=O)(=O)O)cc5cc(S(=O)(=O)O)c(N=Nc6ccccc6)c(O)c5c4N)cc3S(=O)(=O)O)cc2)c(O)c1 [compound 1, C.I. Direct Black 168, reference compound]
Ans: 0.88

###

Tested on: strains TA98
Format: cell-based
Settings: TA98, S-9 (-), 313 μg/plate
Threshold 0.9. Ames test: ratio of the number of colonies to control below it: 1. Ames test: ratio of the number of colonies to control at it or above: -1.

The examples below pair each entry with its known result.
Cc1ccc(N(c2ccc(N=Nc3ccc(O)cc3O)cc2)c2ccc(N=Nc3c(S(=O)(=O)O)cc4cc(S(=O)(=O)O)c(N=Nc5ccccc5)c(O)c4c3N)cc2)cc1 | -1
CN(c1ccc(N=Nc2ccc(N)cc2O)cc1)c1ccc(N=Nc2c(S(=O)(=O)O)cc3cc(S(=O)(=O)O)c(N=Nc4ccccc4)c(O)c3c2N)cc1 | 1

Q: Regarding Nc1ccc(N=Nc2ccc(N(c3ccccc3)c3ccc(N=Nc4c(S(=O)(=O)O)cc5cc(S(=O)(=O)O)c(N=Nc6ccccc6)c(O)c5c4N)cc3)cc2)c(O)c1 , kindly confirm whether its Ames test: ratio of the number of colonies to control is beneath 0.9.
Ans: 1

Q: Also need CCCCN(c1ccc(N=Nc2ccc(N)cc2O)cc1)c1ccc(N=Nc2c(S(=O)(=O)O)cc3cc(S(=O)(=O)O)c(N=Nc4ccc(C(C)CC)cc4)c(O)c3c2N)cc1 (centres unmarked) , thanks.
Ans: -1

###

System: strains TA98
Type: cell-based
Conditions: TA98, S-9 (+), 1250 μg/plate
Criterion: Ames test: ratio of the number of colonies to control strictly under 1. Met: Condition met. Not met: Condition not met.

Before answering, review these 4 worked examples.
Nc1ccc(N=Nc2ccc(N(c3ccccc3)c3ccc(N=Nc4c(S(=O)(=O)O)cc5cc(S(=O)(=O)O)c(N=Nc6ccc(S(=O)(=O)O)cc6)c(O)c5c4N)cc3)cc2)c(O)c1 | Condition not met
Nc1ccc(N=Nc2ccc(N(c3ccccc3)c3ccc(N=Nc4c(S(=O)(=O)O)cc5cc(S(=O)(=O)O)c(N=Nc6ccccc6)c(O)c5c4N)cc3)cc2)c(O)c1 | Condition met
Cc1ccc(N(c2ccc(N=Nc3ccc(O)cc3O)cc2)c2ccc(N=Nc3c(S(=O)(=O)O)cc4cc(S(=O)(=O)O)c(N=Nc5ccccc5)c(O)c4c3N)cc2)cc1 | Condition met
Nc1ccc(N=Nc2ccc(Nc3ccc(N=Nc4c(S(=O)(=O)O)cc5cc(S(=O)(=O)O)c(N=Nc6ccccc6)c(O)c5c4N)cc3S(=O)(=O)O)cc2)c(O)c1 [compound 1, C.I. Direct Black 168, reference compound] | Condition not met

Q: Identify whether the compound CCCCN(c1ccc(N=Nc2ccc(N)cc2O)cc1)c1ccc(N=Nc2c(S(=O)(=O)O)cc3cc(S(=O)(=O)O)c(N=Nc4ccc(C(C)CC)cc4)c(O)c3c2N)cc1 (centres unmarked) records Ames test: ratio of the number of colonies to control below 1.
Ans: Condition not met

###

Documented Ames test: ratio of the number of colonies to control across a set of compounds
Tested on: strains TA98
Type: cell-based
Details: TA98, S-9 (-), 313 μg/plate
Please reply with the value in numeric form only.

Recorded Ames test: ratio of the number of colonies to control, per entry:
CCCCCCCCN(c1ccc(N=Nc2ccc(N)cc2O)cc1)c1ccc(N=Nc2c(S(=O)(=O)O)cc3cc(S(=O)(=O)O)c(N=Nc4ccc(S(=O)(=O)O)cc4)c(O)c3c2N)cc1 | 0.91
Cc1cc(-c2ccc(N=Nc3c(S(=O)(=O)[O-])cc4cc(S(=O)(=O)[O-])c(N=Nc5ccccc5)c(O)c4c3N)c(C)c2)ccc1N=Nc1ccc(N)cc1N.[Na+].[Na+] [compound 3, C.I. Direct Black 154, reference compound] | 0.84

// next item, Ames test: ratio of the number of colonies to control requested
Q: Can you share its Ames test: ratio of the number of colonies to control? I mean this compound: Nc1ccc(N=Nc2ccc(N=Nc3c(S(=O)(=O)[O-])cc4cc(S(=O)(=O)[O-])c(N=Nc5ccc(N=Nc6ccc(N)cc6N)cc5)c(O)c4c3N)cc2)c(N)c1.[Na+].[Na+] [compound 2, C.I. Direct Black 19, reference compound]
Ans: 1.48

###

Tested on: strains TA98
Assay type: cell-based
Conditions: TA98, S-9 (-), 20 μg/plate
Simple rule here: Ames test: ratio of the number of colonies to control less than 0.9 is T, otherwise F.

Consider the worked cases shown below.
CCCCCCCCN(c1ccc(N=Nc2ccc(N)cc2O)cc1)c1ccc(N=Nc2c(S(=O)(=O)O)cc3cc(S(=O)(=O)O)c(N=Nc4ccc(S(=O)(=O)O)cc4)c(O)c3c2N)cc1 | F
Cc1ccc(N(c2ccc(N=Nc3ccc(O)cc3O)cc2)c2ccc(N=Nc3c(S(=O)(=O)O)cc4cc(S(=O)(=O)O)c(N=Nc5ccccc5)c(O)c4c3N)cc2)cc1 | F
CCC(C)c1ccc(N=Nc2c(S(=O)(=O)O)cc3cc(S(=O)(=O)O)c(N=Nc4ccc(N(c5ccccc5)c5ccc(N=Nc6ccc(O)cc6O)cc5)cc4)c(N)c3c2O)cc1 (centres unmarked) | T
Nc1ccc(N=Nc2ccc(N(c3ccccc3)c3ccc(N=Nc4c(S(=O)(=O)O)cc5cc(S(=O)(=O)O)c(N=Nc6ccc(S(=O)(=O)O)cc6)c(O)c5c4N)cc3)cc2)c(O)c1 | F

Q: Lab note: confirm whether the reported Ames test: ratio of the number of colonies to control for this molecule is below 0.9, equality not counting. molecule: CCCCCCN(c1ccc(N=Nc2ccc(N)cc2O)cc1)c1ccc(N=Nc2c(S(=O)(=O)O)cc3cc(S(=O)(=O)O)c(N=Nc4ccccc4C)c(O)c3c2N)cc1
Ans: F

Q: Could you do the same for Nc1ccc(N=Nc2ccc(Nc3ccc(N=Nc4c(S(=O)(=O)O)cc5cc(S(=O)(=O)O)c(N=Nc6ccccc6)c(O)c5c4N)cc3S(=O)(=O)O)cc2)c(O)c1 [compound 1, C.I. Direct Black 168, reference compound] , please?
Ans: T

Q: How about this molecule: CN(c1ccc(N=Nc2ccc(N)cc2O)cc1)c1ccc(N=Nc2c(S(=O)(=O)O)cc3cc(S(=O)(=O)O)c(N=Nc4ccccc4)c(O)c3c2N)cc1
Ans: F

Q: Next molecule up: Nc1ccc(N=Nc2ccc(N(c3ccccc3)c3ccc(N=Nc4c(S(=O)(=O)O)cc5cc(S(=O)(=O)O)c(N=Nc6ccccc6)c(O)c5c4N)cc3)cc2)c(O)c1
Ans: F

Q: Okay, and CCCCN(c1ccc(N=Nc2ccc(N)cc2O)cc1)c1ccc(N=Nc2c(S(=O)(=O)O)cc3cc(S(=O)(=O)O)c(N=Nc4ccc(C(C)CC)cc4)c(O)c3c2N)cc1 (centres unmarked) ?
Ans: T

Q: Next entry: Cc1cc(-c2ccc(N=Nc3c(S(=O)(=O)[O-])cc4cc(S(=O)(=O)[O-])c(N=Nc5ccccc5)c(O)c4c3N)c(C)c2)ccc1N=Nc1ccc(N)cc1N.[Na+].[Na+] [compound 3, C.I. Direct Black 154, reference compound]
Ans: T
